test.target: PI3Kδ (Homo sapiens)
Sequence (O00329 whole entry): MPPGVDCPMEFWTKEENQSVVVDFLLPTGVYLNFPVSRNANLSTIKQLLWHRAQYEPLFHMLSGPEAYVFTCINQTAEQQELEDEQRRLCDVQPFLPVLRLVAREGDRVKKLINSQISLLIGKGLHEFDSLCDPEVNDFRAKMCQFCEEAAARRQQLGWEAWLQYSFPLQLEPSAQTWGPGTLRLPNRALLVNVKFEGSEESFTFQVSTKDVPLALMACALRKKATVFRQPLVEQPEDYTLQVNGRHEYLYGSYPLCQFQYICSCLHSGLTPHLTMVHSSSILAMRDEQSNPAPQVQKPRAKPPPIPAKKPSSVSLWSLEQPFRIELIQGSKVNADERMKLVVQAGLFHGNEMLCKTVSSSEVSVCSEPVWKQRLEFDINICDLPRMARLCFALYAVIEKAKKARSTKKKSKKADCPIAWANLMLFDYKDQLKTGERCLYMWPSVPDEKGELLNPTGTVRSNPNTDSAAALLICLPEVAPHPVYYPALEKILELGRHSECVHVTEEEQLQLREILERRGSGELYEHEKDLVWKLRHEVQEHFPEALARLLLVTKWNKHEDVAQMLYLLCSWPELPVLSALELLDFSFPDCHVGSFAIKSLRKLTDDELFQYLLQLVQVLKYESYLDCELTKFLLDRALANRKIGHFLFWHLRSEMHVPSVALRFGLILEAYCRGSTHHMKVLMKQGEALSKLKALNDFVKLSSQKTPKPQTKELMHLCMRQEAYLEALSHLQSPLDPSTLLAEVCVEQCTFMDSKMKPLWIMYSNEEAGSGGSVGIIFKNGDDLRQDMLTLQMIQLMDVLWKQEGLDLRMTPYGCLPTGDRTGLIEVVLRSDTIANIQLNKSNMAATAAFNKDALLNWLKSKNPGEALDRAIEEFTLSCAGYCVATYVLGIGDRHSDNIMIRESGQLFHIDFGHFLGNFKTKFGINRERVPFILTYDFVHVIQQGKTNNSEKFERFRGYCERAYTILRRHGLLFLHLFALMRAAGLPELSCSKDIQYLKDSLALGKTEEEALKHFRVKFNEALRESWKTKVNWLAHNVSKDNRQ
Sequence (P27986 whole entry partner): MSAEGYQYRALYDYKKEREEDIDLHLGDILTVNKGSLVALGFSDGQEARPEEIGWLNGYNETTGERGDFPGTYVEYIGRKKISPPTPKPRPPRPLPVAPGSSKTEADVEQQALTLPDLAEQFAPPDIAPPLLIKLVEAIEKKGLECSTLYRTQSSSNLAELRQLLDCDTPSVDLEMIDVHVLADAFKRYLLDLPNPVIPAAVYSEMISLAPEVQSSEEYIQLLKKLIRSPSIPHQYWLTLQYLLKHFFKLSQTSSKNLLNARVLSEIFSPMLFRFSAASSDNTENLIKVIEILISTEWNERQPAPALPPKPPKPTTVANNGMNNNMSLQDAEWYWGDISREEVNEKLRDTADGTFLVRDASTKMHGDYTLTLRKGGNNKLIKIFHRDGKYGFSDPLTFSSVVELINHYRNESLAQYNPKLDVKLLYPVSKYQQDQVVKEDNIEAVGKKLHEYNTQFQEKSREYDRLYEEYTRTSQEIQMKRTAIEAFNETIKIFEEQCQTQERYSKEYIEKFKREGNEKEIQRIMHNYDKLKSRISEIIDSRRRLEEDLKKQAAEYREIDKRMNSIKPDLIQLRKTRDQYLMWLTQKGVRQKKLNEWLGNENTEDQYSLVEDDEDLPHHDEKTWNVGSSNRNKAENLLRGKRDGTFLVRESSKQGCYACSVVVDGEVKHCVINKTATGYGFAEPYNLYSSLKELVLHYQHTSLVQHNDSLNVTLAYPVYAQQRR
assay.comment: BCR crosslinking-induced B cell CD69 expression, human whole blood
Type: cell-based
run.parameters: CD19+ cells (human whole blood), Anti-IgD, B cell CD69 surface expression
value.type: IC50 (nM)
Number only, in nM; omit the unit.

Using known records, supply IC50 for C[C@H](Nc1ncnc(N)c1C#N)c1nn2ccc(C#N)c2c(=O)n1-c1ccccc1 [LAS191954] 47
